These data points were gathered from patent US20220356186A1.

compounds and their reported IC50
system: GFP-eIF2α in HEK293 cells; assay: PERK cellular assay, TR-FRET in HEK293-EGFP-eIF2a cells after tunicamycin-induced ER stress; type: cell-based; conditions: HEK293-EGFP-eIF2a cells, tunicamycin 2 hours; read-out: Cellular eIF2α IC50

Known results for compounds:
>  <compound>
Cc1nc(N)c2c(-c3cc(F)c(NC(=O)C(O)c4cccc(F)c4)cc3C)cn(C)c2n1 (single isomer, unassigned) [Example 122]

>  <IC50>
1000 to 2000 nM

$$$$
>  <compound>
Cc1nc(N)c2c(-c3ccc(NC(=O)C(O)c4cccc(F)c4)cc3OC(F)(F)F)cn(C)c2n1 (single isomer, unassigned) [Example 21]

>  <IC50>
501 to 1000 nM

$$$$
>  <compound>
COc1cc(NC(=O)C(O)c2cccc(F)c2)ccc1-c1cn(C)c2ncnc(N)c12 (stereo not shown) [Example 104]

>  <IC50>
101 to 250 nM

$$$$

# input IC50 for Cc1cc(NC(=O)C(O)c2cccc(F)c2)ccc1-c1cn(C)c2ncnc(N)c12 (stereo not shown) [Example 9] ?
# output 1 to 25 nM

# input IC50 for Cn1cc(-c2ccc(NC(=O)C(O)c3cccc(F)c3)cc2F)c2c(N)ncnc21 (single isomer, unassigned) [Example 4] ?
# output 1 to 25 nM

# input IC50 for Cc1cc(F)cc(C(O)C(=O)Nc2ccc(-c3cn(C)c4nc(C)nc(N)c34)c(C)c2)c1 (stereo not shown) [Example 56] ?
# output 1 to 25 nM

# input IC50 for Cc1nc(N)c2c(-c3cc(F)c(NC(=O)C(O)c4cccc(F)c4)cc3C)cn(C)c2n1 (single isomer, unassigned) [Example 121] ?
# output 26 to 50 nM

* * *

target: EIF2AK3 (PERK) catalytic domain (amino acids 536-1116) (Homo sapiens, UniProt Q9NZJ5); construct: EIF2AK3 (PERK) catalytic domain (amino acids 536-1116); experiment: PERK in vitro activity assay (isolated), TR-FRET kinase assay; assay type: biochemical; conditions: isolated PERK enzyme, 1.5 μM ATP; read-out: Biochemical IC50
Sequence (Q9NZJ5 536-1116): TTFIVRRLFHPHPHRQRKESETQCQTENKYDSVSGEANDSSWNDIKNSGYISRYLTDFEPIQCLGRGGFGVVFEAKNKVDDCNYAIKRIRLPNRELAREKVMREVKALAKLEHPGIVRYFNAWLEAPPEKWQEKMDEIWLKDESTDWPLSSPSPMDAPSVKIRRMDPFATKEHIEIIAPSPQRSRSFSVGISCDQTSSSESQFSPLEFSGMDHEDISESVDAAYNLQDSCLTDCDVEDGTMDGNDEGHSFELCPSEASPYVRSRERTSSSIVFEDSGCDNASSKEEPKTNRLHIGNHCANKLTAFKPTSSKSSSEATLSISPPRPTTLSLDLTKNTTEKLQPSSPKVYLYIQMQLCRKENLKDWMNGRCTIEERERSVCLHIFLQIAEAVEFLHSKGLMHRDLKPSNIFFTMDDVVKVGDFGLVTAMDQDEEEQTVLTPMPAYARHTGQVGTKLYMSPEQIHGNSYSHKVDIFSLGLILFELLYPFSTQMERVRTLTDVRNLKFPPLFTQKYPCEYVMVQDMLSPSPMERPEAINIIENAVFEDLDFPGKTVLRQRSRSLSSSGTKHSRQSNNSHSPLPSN
compounds and their reported IC50

Known results for compounds:
>  <compound>
COc1cccc(CC(=O)Nc2ccc(-c3cn(C)c4ncnc(N)c34)c(C)c2)c1

>  <IC50>
26 to 50 nM

$$$$
>  <compound>
Cc1nc(N)c2c(-c3ccc(NC(=O)C(O)c4ccccc4C)cc3C)cn(C)c2n1 (centres unmarked)

>  <IC50>
26 to 50 nM

$$$$
>  <compound>
Cc1nc(N)c2c(-c3cnc(NC(=O)C(O)c4cccc(C(F)(F)F)c4)cc3C)cn(C)c2n1 (centres unmarked) [Example 131]

>  <IC50>
26 to 50 nM

$$$$
>  <compound>
Cc1cc(NC(=O)C(O)c2ccccc2)ccc1-c1cn(C)c2ncnc(N)c12 (centres unmarked) [Example 6]

>  <IC50>
1 to 25 nM

$$$$
>  <compound>
Cc1nc(N)c2c(-c3ccc(NC(=O)C(O)c4cccc(F)c4)cc3OC(F)(F)F)cn(C)c2n1 (single isomer, unassigned) [Example 22]

>  <IC50>
101 to 250 nM

$$$$

# input Record lookup: for EIF2AK3 (PERK) catalytic domain (amino acids 536-1116) (Homo sapiens, UniProt Q9NZJ5), what IC50 belongs to Cc1cc(NC(=O)CC2CCCCC2)ccc1-c1cn(C)c2ncnc(N)c12 ?
# output 1 to 25 nM

# input Record lookup: for EIF2AK3 (PERK) catalytic domain (amino acids 536-1116) (Homo sapiens, UniProt Q9NZJ5), what IC50 belongs to CCc1cc(NC(=O)C(O)c2cccc(F)c2)ccc1-c1cn(C)c2nc(C)nc(N)c12 (centres unmarked) [Example 69] ?
# output 101 to 250 nM

# input Record lookup: for EIF2AK3 (PERK) catalytic domain (amino acids 536-1116) (Homo sapiens, UniProt Q9NZJ5), what IC50 belongs to Cc1nc(N)c2c(-c3ccc(NC(=O)C(O)c4ccccc4Cl)cc3F)cn(C)c2n1 (centres unmarked) ?
# output 1000 to 2000 nM
